# System under test: integrin αβ8 (αvβ8), form in the assay not stated (UniProt P06756)
# Sequence (chain, as listed by the source, chain 1 of 2): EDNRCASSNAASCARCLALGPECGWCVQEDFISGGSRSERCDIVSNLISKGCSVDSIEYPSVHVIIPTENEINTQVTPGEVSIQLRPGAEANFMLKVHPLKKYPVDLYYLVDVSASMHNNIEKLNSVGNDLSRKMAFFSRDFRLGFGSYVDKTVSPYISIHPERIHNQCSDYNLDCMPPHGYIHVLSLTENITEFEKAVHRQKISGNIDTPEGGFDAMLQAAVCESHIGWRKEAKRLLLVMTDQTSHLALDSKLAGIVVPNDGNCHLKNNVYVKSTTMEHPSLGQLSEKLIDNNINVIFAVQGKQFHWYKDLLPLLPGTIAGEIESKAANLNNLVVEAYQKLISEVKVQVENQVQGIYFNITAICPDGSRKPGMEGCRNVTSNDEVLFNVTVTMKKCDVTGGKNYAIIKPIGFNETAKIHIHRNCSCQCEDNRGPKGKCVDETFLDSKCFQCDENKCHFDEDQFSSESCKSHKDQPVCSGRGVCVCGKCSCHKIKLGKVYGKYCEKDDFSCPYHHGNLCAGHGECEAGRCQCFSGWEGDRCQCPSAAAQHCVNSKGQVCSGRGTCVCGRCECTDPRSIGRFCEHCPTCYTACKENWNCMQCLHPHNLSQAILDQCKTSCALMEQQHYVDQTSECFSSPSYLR
# Sequence (P06756 31-992, chain 2 of 2): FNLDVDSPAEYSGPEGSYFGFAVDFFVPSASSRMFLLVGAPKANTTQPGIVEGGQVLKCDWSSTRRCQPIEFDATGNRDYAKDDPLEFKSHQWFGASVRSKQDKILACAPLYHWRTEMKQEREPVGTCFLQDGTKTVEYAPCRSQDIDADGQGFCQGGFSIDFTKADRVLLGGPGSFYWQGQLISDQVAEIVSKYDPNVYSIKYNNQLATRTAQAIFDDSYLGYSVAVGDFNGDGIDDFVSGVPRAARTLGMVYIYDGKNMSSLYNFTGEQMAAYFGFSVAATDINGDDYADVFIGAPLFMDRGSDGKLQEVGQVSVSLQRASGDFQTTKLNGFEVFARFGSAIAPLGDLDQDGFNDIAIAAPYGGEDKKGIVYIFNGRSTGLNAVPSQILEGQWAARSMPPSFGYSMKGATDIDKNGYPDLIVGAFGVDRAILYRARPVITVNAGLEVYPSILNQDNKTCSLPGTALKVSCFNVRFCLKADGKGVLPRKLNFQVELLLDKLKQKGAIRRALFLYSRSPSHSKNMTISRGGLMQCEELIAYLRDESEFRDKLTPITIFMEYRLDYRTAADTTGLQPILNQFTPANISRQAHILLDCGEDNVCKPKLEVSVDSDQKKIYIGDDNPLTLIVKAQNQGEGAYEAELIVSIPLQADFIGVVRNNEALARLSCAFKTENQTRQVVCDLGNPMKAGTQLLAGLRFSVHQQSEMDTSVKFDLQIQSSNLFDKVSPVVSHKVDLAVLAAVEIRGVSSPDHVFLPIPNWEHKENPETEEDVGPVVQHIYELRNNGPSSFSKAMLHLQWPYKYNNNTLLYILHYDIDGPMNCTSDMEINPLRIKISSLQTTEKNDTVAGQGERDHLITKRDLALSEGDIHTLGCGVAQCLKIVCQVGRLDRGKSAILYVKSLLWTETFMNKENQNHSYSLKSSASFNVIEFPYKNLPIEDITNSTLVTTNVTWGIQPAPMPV
# Protocol summary: affinity determination of scFv; method and antigen form not stated
Quantity measured: Kd (nM)
Write the number in nM without appending the unit.

Binder: 14E5Mut54 scFv (scFv, V domains shown, part only, linker not given; order not stated) VH: EVQLQQSGAELMKPGASVKISCKATGYTFSTNWIEWIKQRPGHGLEWIGHILPGSVITNYNEKFKGKAAITADTSSNTSYMQLSSLTSEDSAVYYCARWGWDSYWGQGTLVTVSS VL: DIVMTQTPSSLSASLGDRVTIRCSASQGISNYLNWYQQKPDGTVKLLIYYTSSLHSGVPSRFSGSGSGTDYSLTISNLEPEDIATYYCQQYSNLPYTFGGGTKLEIKR
Kd, nM: 2.09
//
Binder: 14E5Mut68 scFv (scFv, V domains shown, part only, linker not given; order not stated) VH: EVQLQQSGAELMKPGASVKISCKATGYTFSTYWIEWIKQRPGHGLEWIGDILPGSGTTNYNEKFKGRATVTADRSSNTAYMQLSSLTSEDSAVYYCARWGWDSYWGQGTLVTVSS VL: DIKMTQSPSSLSASLGDRVTISCSASQGISNYLNWYQQKPDGTVKLLIYYTSSLHSGVPSRFSGSGSGTDYSLTISNLEPEDIATYYCQQYSELPYTFGGGTKLEIKR
Kd, nM: 1.42
//
Binder: 11E8Mut94 scFv (scFv, V domains shown, part only, linker not given; order not stated) VH: EVQLQQSGPELMKTGASVKISCKATGYTFSSYWIEWVKQRPGHGLEWIGDILPGSGTTNYNEKFEGRAAITADTSSNTSYMQLSSLTSEDSAVYYCARWGWDSYWGQGTLVTVSS VL: DIKMTQTPSSLSASLGDRVTISCSASQGISNYLNWYQQKPDGTVKLLIYYTSSLHSGVPSRFSGSGSGTDYSLTISNLEPEDIATYYCQQYSNLPYTFGGGTKLEIKR
Kd, nM: 3.2

In the following, a different binder is considered.
Lookup: Provide Kd value for the following binder: 11E8Mut39 scFv (scFv, V domains shown, part only, linker not given; order not stated) VH: EVQLQQSGPELMKTGASVKISCKATGYTFSTYWIEWVKQRPGHGLEWIGHTLPGSGTTNYNEKFKGRATITADRPSNTSYMQLSSLTYGDSAVFYCATWGWDTYWDHGTSVTVSS VL: DIEMTQSPSSLSASLGDRVTISCSTSQDVSSYLNWYQQKPDGTVTLLIYYASNLHSGVPSRFSGSGSGTDYSLAISNLEPEDIATYYCQQYSNLPYTFGGGTKLEIKA
Found: 21.1

Values were extracted from patent US20140271478A1.
